- study-system: CRTH2 (Homo sapiens, UniProt Q9Y5Y4)
- Construct: prolactin (prolac) signal peptide (N)
- assay-method-text: [Ca2+]i mobilization assay in 300-19 cells expressing CRTH2
- test-parameters: CRTH2 stable cell line (300-19 transfectants)
pEC50: −log10 of the molar value.
metric: pEC50

CCCCC[C@H](O)/C=C/[C@H]1C(=O)C[C@H](O)[C@@H]1C/C=C\CCCC(=O)O [PGD2, prostaglandin D2] : 7.82

###

- study-system: CRTH2 (Homo sapiens)
- Sequence (Q9Y5Y4 1-395): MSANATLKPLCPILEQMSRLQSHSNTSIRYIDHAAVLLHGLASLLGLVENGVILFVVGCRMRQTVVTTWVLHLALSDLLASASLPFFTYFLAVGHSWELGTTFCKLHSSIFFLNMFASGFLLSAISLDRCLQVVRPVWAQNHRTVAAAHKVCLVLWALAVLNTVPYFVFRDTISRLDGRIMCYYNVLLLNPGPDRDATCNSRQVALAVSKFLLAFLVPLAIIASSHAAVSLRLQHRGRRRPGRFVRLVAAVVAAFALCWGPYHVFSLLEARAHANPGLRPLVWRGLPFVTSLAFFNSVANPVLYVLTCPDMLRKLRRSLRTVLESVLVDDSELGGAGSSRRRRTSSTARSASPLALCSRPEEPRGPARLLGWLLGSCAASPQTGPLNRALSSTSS
pKd: −log10 of the molar value.
metric: pKd

CCCCC[C@H](O)/C=C/[C@H]1C(=O)C[C@H](O)[C@@H]1C/C=C\CCCC(=O)O [PGD2, prostaglandin D2] : 7.74

###

Measured IC50 accompanies every entry in the list below.
- study-system: human eosinophil [3H]-PGD2 binding site (Homo sapiens, UniProt Q9Y5Y4)
- Construct: endogenous in cells
- assay-method-text: [3H]PGD2 binding in isolated human eosinophils
- test-parameters: number in brackets not defined
metric: IC50 (nM)

CCCCC[C@H](O)/C=C/[C@@H]1[C@@H](C/C=C\CCCC(=O)O)[C@@H](O)C[C@H]1O : 1500
CCCCC[C@H](O)/C=C/[C@H]1[C@H](O)CC(=O)[C@@H]1C/C=C\CCCC(=O)O : 3300
CCCCC[C@H](O)/C=C/[C@H]1C(=O)C[C@H](O)[C@@H]1C/C=C\CCCC(=O)O [PGD2, prostaglandin D2] : 25

###

- study-system: DP receptor (Homo sapiens, UniProt Q13258)
- Sequence (Q13258 1-359): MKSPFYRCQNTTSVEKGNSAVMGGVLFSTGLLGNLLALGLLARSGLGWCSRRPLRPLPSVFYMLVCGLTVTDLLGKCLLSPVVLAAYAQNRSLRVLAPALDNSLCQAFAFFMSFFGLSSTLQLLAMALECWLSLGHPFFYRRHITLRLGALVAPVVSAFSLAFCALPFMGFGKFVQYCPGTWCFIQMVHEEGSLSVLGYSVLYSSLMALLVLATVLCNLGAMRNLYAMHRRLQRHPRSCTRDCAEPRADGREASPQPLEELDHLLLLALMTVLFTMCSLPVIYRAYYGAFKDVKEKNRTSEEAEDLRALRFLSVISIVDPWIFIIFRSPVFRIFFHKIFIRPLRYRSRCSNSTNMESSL
- assay-method-text: Competition with 3H-PGD2 binding at the DP receptor (Examples 6-9)
- test-parameters: control, cold PGD2, 7 trials
metric: IC50 (nM)

CCCCC[C@H](O)/C=C/[C@H]1C(=O)C[C@H](O)[C@@H]1C/C=C\CCCC(=O)O [PGD2, prostaglandin D2] : 23.4
